Cited source: ChEMBL document CHEMBL4190240

Field: IC50. Provide a value for each of the compounds that follow.
System: MDA-MB-231
Test: Cytotoxicity against human MDA-MB-231 cells assessed as cell growth inhibition after 48 hrs by MTT assay
Type: functional, cell-based
Conditions: MDA-MB-231, 48 h
Numbers only, in µM.

Please review the following examples before continuing.
CPD_SMILES: COc1cc(-c2nc3cc(/C=C4\SC(=O)NC4=O)ccc3[nH]2)ccc1OCC(C)C
TARGET: MDA-MB-231
RESULT_VALUE: 7.78
--
CPD_SMILES: COc1cc(-c2nc3cc(/C=C4\SC(=O)N(CC(=O)N5CCCC5)C4=O)ccc3[nH]2)cc(OC)c1OC
TARGET: MDA-MB-231
RESULT_VALUE: 2.88

# next compound below
Given COc1cc(OC)c(-c2nc3cc(/C=C4\SC(=O)N(Cc5cccc(C)c5)C4=O)ccc3[nH]2)cc1OC , state its recorded IC50. 1.78
